Test system: picornaviruses (CVB1, HRV-A2, HRV-A23, EV-68)
experiment_description: Anti-picornavirus cytopathic effect (CPE) reduction assay on HeLa H1 cells
Type: cell-based
particulars: Enterovirus B, HeLa H1, 48 h, HeLa H1 cells, 48 h, category from averaging the EC50 values from four picornaviruses (CVB1, HRV-A2, HRV-A23, EV68); read-out: EC50 values of the compounds determined in the anti-picornavirus assay
pEC50: −log10 of the molar value.
Quick reference: pEC50 of the listed items.

Worked examples, 4 molecules total:
COc1ccccc1N(C=O)C(C)C(=O)C(=O)NCc1ccccc1C (centres unmarked) [FP 98] : 5.00 to 6.00
COc1ccccc1N(C=O)C(C)C(=O)C(=O)NC(C)(C)C (centres unmarked) [FP 75] : 5.00 to 6.00
CC(NC(=O)c1ccccc1Cl)C(=O)C(=O)NCC1CC1 (centres unmarked) [FP 169] : 5.00 to 6.00
C[C@H]1CC(=O)N(Cc2ccccc2)[C@H]1C(=O)C(=O)NCC1CC1 (single isomer, unassigned) [FP 337] : > 6.00

Let us examine a further case.
Return reported pEC50; argument: O=C(NCCO)C(=O)C1CCC(=O)N1Cc1ccc(Cl)cc1 (centres unmarked) [FP 256]
5.00 to 6.00

----------
Quick reference: EC50 of the listed items.
System: picornaviruses (CVB1, HRV-A2, HRV-A23, EV-68)
experiment_description: Anti-picornavirus cytopathic effect (CPE) reduction assay on HeLa H1 cells
Type: cell-based
particulars: Enterovirus B, HeLa H1, 48 h, HeLa H1 cells, 48 h, category from averaging the EC50 values from four picornaviruses (CVB1, HRV-A2, HRV-A23, EV68); read-out: EC50 values of the compounds determined in the anti-picornavirus assay

Return reported EC50; argument: CC(C(=O)C(=O)NC1CC1)N(C=O)Cc1ccccc1 (stereo not drawn)
1 to 10 µM

Return reported EC50; argument: CC(NS(=O)(=O)c1ccc(Cl)cc1)C(=O)C(=O)NCC1CC1 (stereo not drawn)
1 to 10 µM

Return reported EC50; argument: O=C(NCCc1ccncc1)C(=O)C1CCC(=O)N1Cc1ccccc1 (stereo not drawn)
1 to 10 µM

Return reported EC50; argument: CC(OCC1CCOCC1)C(=O)C(=O)NCC1CCCC1 (stereo not drawn)
< 1 µM

Return reported EC50; argument: CC(NC(=O)c1ccncc1)C(=O)C(=O)NCC1CCCCC1 (stereo not drawn)
1 to 10 µM

Return reported EC50; argument: CCC(C(=O)C(=O)NCC1CCCCC1)N(C=O)CC1CN(C(=O)OC(C)(C)C)C1 (stereo not drawn)
1 to 10 µM

Return reported EC50; argument: CC(C)[C@H](C(=O)C(=O)NCC1CC1)N(C=O)CC(C)(C)C (single isomer, unassigned)
> 10 µM

Return reported EC50; argument: CC(NC(=O)C1CCCCC1)C(=O)C(=O)NCC1CC1 (stereo not drawn)
> 10 µM

Return reported EC50; argument: CC(NC(=O)C1CCN(CC(F)(F)F)CC1)C(=O)C(=O)NCC1CCCCC1 (stereo not drawn)
1 to 10 µM

----------
Test system: picornaviruses (CVB1, HRV-A2, HRV-A23, EV-68)
experiment_description: Anti-picornavirus cytopathic effect (CPE) reduction assay on HeLa H1 cells
Assay type: cell-based
particulars: Enterovirus B, HeLa H1, 48 h, HeLa H1 cells, 48 h, category from averaging the EC50 values from four picornaviruses (CVB1, HRV-A2, HRV-A23, EV68); read-out: EC50 values of the compounds determined in the anti-picornavirus assay
pEC50: −log10 of the molar value.
measure_name: pEC50

Worked examples, 5 compounds total:
CC(C)C(=O)NCCCCNC(=O)C(=O)[C@H]1CCC(=O)N1Cc1ccccc1 : 5.00 to 6.00
CC(C(=O)C(=O)NC(C)(C)c1cccc(Cl)c1)N(C=O)C1CCCCC1 (stereo not drawn) : > 6.00
CCOCCOCCNC(=O)C(=O)[C@H]1CCC(=O)N1Cc1ccccc1 : 5.00 to 6.00
O=C(NC1CC1)C(=O)C1CCC(=O)N1CCc1ccccc1 (stereo not drawn) : 5.00 to 6.00
CNC(=O)C(=O)[C@H]1CCC(=O)N1Cc1ccccc1 : 5.00 to 6.00

Return reported pEC50; argument: CC(C)NC(=O)C(=O)C(C)OCc1ccccc1 (stereo not drawn)
> 6.00

Return reported pEC50; argument: CCC(NC(=O)c1ccccc1)C(=O)C(=O)NCC1CC1 (stereo not drawn)
5.00 to 6.00

Return reported pEC50; argument: CC(C)C(NC(=O)c1ccccc1)C(=O)C(=O)NCC1CC1 (stereo not drawn)
< 5.00

Return reported pEC50; argument: CCNC(=O)C(=O)[C@H]1CCC(=O)N1Cc1ccccc1
> 6.00

Return reported pEC50; argument: CC(C)NC(=O)C(=O)C1CCC(=O)N1Cc1ccccc1 (stereo not drawn)
> 6.00

Return reported pEC50; argument: CC(C(=O)C(=O)NCC(F)F)N(C=O)C1CCCCC1 (stereo not drawn)
< 5.00

Return reported pEC50; argument: CC(C(=O)C(=O)NCC1CC1)N(C=O)CC(C)(C)C (stereo not drawn)
5.00 to 6.00

Return reported pEC50; argument: Cc1nc(C)n(CCCNC(=O)C(=O)C2CCC(=O)N2Cc2ccccc2)n1 (stereo not drawn)
< 5.00
